# Test system: Wnt5a (protein binding on small-molecule microarray)
# MEASUREMENT DESCRIPTION: Wnt5a binders on small-molecule microarray, primary screen, biophysical, 635/667 nm fluorescence (AID 1142);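 further: fluorescence read at 667 nm with signal to noise per printed feature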
# SETTINGS: 635 nm fluorescence, higher = more signal
I'd appreciate it if you could supply composite z-score values for the items below.

Please review the following examples before continuing.
{"columns": ["MOLECULE", "composite z-score"],
 "data": [
  ["C=CC[C@]1(C(=O)NCC(O)CO)N=C(c2ccc(OCCCO)cc2)O[C@H]1c1ccccc1CN=[N+]=[N-] (some centres undefined)", 0.176],
  ["O=C1C2C=CC(C(O)C3CC=CCC3)N(Nc3ccc([N+](=O)[O-])cc3)C2C(=O)N1c1ccccc1 (centres undefined)", 0.632],
  ["CC(C)(C)OC(=O)CC[C@@]1(C(=O)N2CCOCC2)N=C(c2ccc(OCCCO)cc2)O[C@@H]1c1ccccc1CN=[N+]=[N-]", 1.14]
]}

Kindly consider the entry below.
Looking up CC1(C)OB(/C=C\CC(OC(=O)c2ccncc2)c2ccccc2)OC1(C)C (centres undefined) , I found its composite z-score recorded as 0.496

Values were extracted from PubChem BioAssay.
